Provenance of the data: patent US10072023B2

// reported λ max per item
Protocol summary: Absorbance at photostationary state (PSS) under simulated sunlight or 365 nm light
Assay type: physicochemical
Parameters: unit not given here
Condition set: wavelength of maximum absorbance in the visible range, ring-closed isoform; 2.0×10^−5 M in triglyme
Quantity kind: λ max

{"Compound structure string": "CC(C)(C)c1ccc(-c2cc(C3=C(c4cc(-c5ccc(C(C)(C)C)s5)sc4-c4ccc(OCCCO)cc4)C(F)(F)C(F)(F)C3(F)F)c(-c3ccc(OCCCO)cc3)s2)s1", "Result": 646}
{"Compound structure string": "CC(C)(C)c1ccc(-c2sc(-c3ccc(C(C)(C)O)cc3)cc2C2=C(c3cc(-c4ccc(C(C)(C)O)cc4)sc3-c3ccc(C(C)(C)C)cc3)C(F)(F)C(F)(F)C2(F)F)cc1", "Result": 615}
{"Compound structure string": "CC(C)(C)c1ccc(-c2sc(-c3cccs3)cc2C2=C(c3cc(-c4cccs4)sc3-c3ccc(C(C)(C)C)cc3)C(F)(F)C(F)(F)C2(F)F)cc1", "Result": 630}
{"Compound structure string": "O=C(O)c1ccc(-c2cc(C3=C(c4cc(-c5ccc(C(=O)O)s5)sc4-c4ccc(C(=O)O)s4)C(F)(F)C(F)(F)C3(F)F)c(-c3ccc(C(=O)O)s3)s2)s1", "Result": 650}
{"Compound structure string": "CC(C)(C)c1ccc(-c2sc(-c3ccc(Cl)cc3)cc2C2=C(c3cc(-c4ccc(Cl)cc4)sc3-c3ccc(C(C)(C)C)cc3)C(F)(F)C(F)(F)C2(F)F)cc1", "Result": 615}
{"Compound structure string": "Cc1cc(-c2sc(-c3sc(C)c(C)c3C)cc2C2=C(c3cc(-c4sc(C)c(C)c4C)sc3-c3cc(C)c(C)s3)C(F)(F)C(F)(F)C2(F)F)sc1C", "Result": 650}
{"Compound structure string": "CC(C)(C)c1ccc(-c2oc3cc(O)ccc3c2C2=C(c3c(-c4ccc(C(C)(C)C)cc4)oc4cc(O)ccc34)C(F)(F)C(F)(F)C2(F)F)cc1", "Result": 520}
{"Compound structure string": "c1ccc(-c2nc(-c3cc(-c4cccs4)sc3-c3cccs3)c(-c3cc(-c4cccs4)sc3-c3cccs3)s2)cc1", "Result": 670}
{"Compound structure string": "COc1ccc2c(C3=C(c4c(-c5ccc(C)s5)oc5cc(OC)ccc45)C(F)(F)C(F)(F)C3(F)F)c(-c3ccc(C)s3)oc2c1", "Result": 513}
{"Compound structure string": "COCCOc1ccc(-c2sc(-c3ccc(C(C)(C)C)s3)cc2C2=C(c3cc(-c4ccc(C(C)(C)C)s4)sc3-c3ccc(OCCOC)cc3)C(F)(F)C(F)(F)C2(F)F)cc1", "Result": 645}
{"Compound structure string": "COc1cc(OC)cc(-c2cc(C3=C(c4cc(-c5cc(OC)cc(OC)c5)sc4-c4cc(OC)cc(OC)c4)C(F)(F)C(F)(F)C3(F)F)c(-c3cc(OC)cc(OC)c3)s2)c1", "Result": 611}
{"Compound structure string": "COc1cc2oc(-c3ccc(C(C)(C)C)cc3)c(C3=C(c4c(-c5ccc(C(C)(C)C)cc5)oc5cc(OC)c(OC)cc45)C(F)(F)C(F)(F)C3(F)F)c2cc1OC", "Result": 554}
